Item-by-item account of self-splicing fitness (ln)
Assay: self-splicing fitness, log relative to wild type (ln ratio); higher = more splicing; Tetrahymena group I intron in knt gene, E. coli kanamycin selection, DiMSum; sequences stand for … in CUCUCU…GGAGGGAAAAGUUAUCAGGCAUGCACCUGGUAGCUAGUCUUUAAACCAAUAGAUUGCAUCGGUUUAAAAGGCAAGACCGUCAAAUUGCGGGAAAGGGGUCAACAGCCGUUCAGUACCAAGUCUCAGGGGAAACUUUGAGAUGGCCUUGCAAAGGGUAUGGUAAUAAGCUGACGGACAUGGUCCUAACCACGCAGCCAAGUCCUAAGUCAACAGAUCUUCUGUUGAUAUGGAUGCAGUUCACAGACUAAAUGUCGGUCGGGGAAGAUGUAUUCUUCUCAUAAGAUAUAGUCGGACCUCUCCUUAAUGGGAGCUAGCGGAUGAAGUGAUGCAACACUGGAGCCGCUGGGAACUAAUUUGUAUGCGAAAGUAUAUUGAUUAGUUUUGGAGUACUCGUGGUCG;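 also: selection with 25 µg/mL kanamycin versus none on LB agar overnight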
Details: 37 °C

Worked cases, self-splicing fitness (ln) given:
SEQUENCE_STRING: GCGCAGCAAUAUUACGUAUC
self-splicing fitness (ln): -0.609
//
SEQUENCE_STRING: UGGUAGCAAUAUUACGGCGU
self-splicing fitness (ln): -0.737
//
SEQUENCE_STRING: ACGUAGCAAUAUUACGCCCU
self-splicing fitness (ln): -0.245
//
SEQUENCE_STRING: UCAAAGCAAUAUUACGCCUG
self-splicing fitness (ln): -0.293
//
SEQUENCE_STRING: CGCCAGCAAUAUUACGGAGG
self-splicing fitness (ln): -0.355

Which measured self-splicing fitness (ln) value corresponds to AUAAAGCAAUAUUACGUAAG ?
-0.84

Which self-splicing fitness (ln) is reported for this sequence? UAUUAGCAAUAUUACGUACU
-0.224

###

Measured self-splicing fitness (ln), listed per entry for reference.
Assay: self-splicing fitness, log relative to wild type (ln ratio); higher = more splicing; Tetrahymena group I intron in knt gene, E. coli kanamycin selection, DiMSum; sequences stand for … in CUCUCU…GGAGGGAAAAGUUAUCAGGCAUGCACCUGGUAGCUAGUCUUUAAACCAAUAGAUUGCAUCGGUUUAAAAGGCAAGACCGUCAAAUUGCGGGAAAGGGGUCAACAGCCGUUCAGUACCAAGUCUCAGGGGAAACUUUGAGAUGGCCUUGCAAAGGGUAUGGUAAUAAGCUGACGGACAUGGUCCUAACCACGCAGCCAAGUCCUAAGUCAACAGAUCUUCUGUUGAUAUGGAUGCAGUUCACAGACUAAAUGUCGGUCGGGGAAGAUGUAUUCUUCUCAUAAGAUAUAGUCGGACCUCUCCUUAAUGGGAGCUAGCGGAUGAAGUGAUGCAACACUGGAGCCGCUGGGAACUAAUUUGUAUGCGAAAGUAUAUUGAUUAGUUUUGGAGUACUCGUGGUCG
Settings: 37 °C
Would you mind answering with just the numeric figure?

SEQUENCE_STRING: CCGUAGCAAUAUUACGCAAC
TEST_VALUE: -2.13
--
SEQUENCE_STRING: AUUCAGCAAUAUUACGUAGA
TEST_VALUE: -0.424
--
SEQUENCE_STRING: CACGAGCAAUAUUACGCUCG
TEST_VALUE: -1.3
--
SEQUENCE_STRING: AGGCAGCAAUAUUACGUCCC
TEST_VALUE: 0.266
--
SEQUENCE_STRING: GAAAAGCAAUAUUACGUUAG
TEST_VALUE: -1.85

Given GUGCAGCAAUAUUACGUAGU , state its recorded self-splicing fitness (ln).
-0.784

// query self-splicing fitness (ln) value for entry CCGGAGCAAUAUUACGAUAU
-2.37

# lookup: self-splicing fitness (ln) of AAGGAGCAAUAUUACGUUUG
-2.82

For GCUCAGCAAUAUUACGGACA , what is its reported self-splicing fitness (ln)?
-0.983

For the sequence shown here, UCCUAGCAAUAUUACGCCCG , give the reported self-splicing fitness (ln).
-2.38

Which self-splicing fitness (ln) value belongs to CCACAGCAAUAUUACGCCAA ?
-2.1
